# Tested on: DU-145 prostate
Hi there, use one of these labels in your reply, thanks! active, inactive

* CCC(CC(C)C)Nc1ccc(NC(CC)CC(C)C)cc1 (stereo not given) | inactive
* O=c1[nH]c2ccccc2n1-c1n[nH]c2ccccc12 | inactive
* Cc1cc(Cl)ccc1NS(=O)(=O)c1ccc(-c2cnc(C3CC3)o2)cc1 | active

Ask: Hi, sorry to bother you, what did the test record for "CCOc1cc(-c2ccc[nH]2)[nH]c1/C=C1\N=C(C)C(C(=O)OC)=C1C" ?
Reply: active

Ask: And Cc1cc(C(O)CN(C)C)cc2c1ccc1cc(C(C)C)ccc12 (stereo not given) ?
Reply: inactive

----------
# Test system: M14 melanoma
# measurement-protocol: NCI tumour cell line growth inhibition, 48 h; in the data active = GI50 below about 0.43 µM; inactive = the rest
Tick one outcome: T (active), F (inactive)

• O=C(NCCCCCCCNC(=O)OCc1ccc2c(Cl)cc(Cl)c(O)c2n1)OCc1ccc2c(Cl)cc(Cl)c(O)c2n1 = T
• COc1cccc(C2NC(=S)NC(C)=C2C(=O)Nc2ccc(Cl)c(Cl)c2)c1 (stereo unspecified) = F

Ask: Could you kindly confirm the outcome this assay logged for CC1COCC(C)N1C1=C(Cl)C(=O)c2ccccc2C1=O (stereo unspecified) ?
Reply: F

----------
# TGI values compiled below
# Tested on: T-47D breast
# measurement-protocol: NCI tumour cell line growth inhibition, 48 h

Worked examples follow.
* CCN(CC)c1nc(N(C)C)c2ccccc2n1 | > 100 µM
* COc1ccc(-c2cc(C(O)C3CCCCN3)c3ccccc3n2)cc1 (stereo unspecified) | 14.1 µM
* Cc1cc([N+](=O)[O-])c(C)c(Br)c1C | > 100 µM

Ask: // returns reported TGI for input "O=C(Nc1cccc(-n2cc(-c3ccncc3)c(-c3ccc(O)c(Cl)c3)n2)c1)c1cccc(C(F)(F)F)c1"
Reply: > 100 µM

Ask: Now consider CC(C)C1(O)C(=O)N(c2c(F)c(F)c(F)c(F)c2F)C(=S)N1CCSc1ccccc1 (stereo unspecified) and answer again.
Reply: 33.6 µM

Ask: Param item: CN1C(=O)C(O)CC1c1cccc(C(F)(F)F)c1 (stereo unspecified)
Reply: > 100 µM

----------
# System: NCI-H226 lung
# measurement-protocol: NCI tumour cell line growth inhibition, 48 h
endpoint-label: TGI

A selection of reference data follows.
- C/C(Nc1ccc(Cl)cc1Cl)=C1/CCOC1=O: > 100 µM
- CC1CC2(C)CC(=O)C1C1C(=O)N(CCN3CCCCC3)C(=O)C12 (stereo unspecified): > 100 µM

Ask: Looking for the measured TGI of C=CC1CN2CCC1CC2C(O)c1ccnc2ccccc12 (stereo unspecified) , can you help?
Reply: > 100 µM

Ask: Now consider CC(=O)OC1CC2C(=O)C(=O)C1(C)C2(C)C (stereo unspecified) and answer again.
Reply: > 100 µM

Ask: Now the same for CC(=O)/C(=C\c1ccc(Cl)c(Cl)c1)C(=O)C(C)CN(C)C (stereo unspecified)
Reply: 14.9 µM

Ask: Try this compound too: "COc1cc2c(c(OC)c1OC)-c1ccc(SC)c(=O)cc1[C@@H](NC(=O)c1ccc(Cl)cc1)CC2"
Reply: < 0.01 µM

----------
# Test system: OVCAR-8 ovarian
# measurement-protocol: NCI tumour cell line growth inhibition, 48 h
endpoint-label: TGI

Field: example entries. Status: answers known.
• CN1CCN(c2nc(-c3ccncc3)nc3sc4c(c23)CCCCCC4)CC1 = 26.3 µM
• Nc1[nH]c(=O)ncc1CO = > 100 µM
• C[C@@H]1C[C@]2(C[C@@H](C)C3[C@@H](CC4(C)[C@@H]5CCC6C(C)(C)OC(=O)C=C[C@]67C[C@@]5(CC[C@]34C)OO7)O2)OC1=O (stereo not given in full) = > 100 µM
• COC(=O)/C(=N/NC(N)=O)C(C(=O)OC)C(=O)C(=O)Nc1ccc(Cl)cc1 (stereo not given) = > 100 µM

Could you now look at the following compound, please?
Ask: // TGI lookup, key: "Cc1cc([N+](=O)[O-])c(C)c(Br)c1C"
Reply: > 100 µM
